# test-system: T1, human IL6R (human, UniProt P08887 20-358, limits assumed)
# T1 construct: Antigen of the Biacore experiments
# T1 sequence (looked up): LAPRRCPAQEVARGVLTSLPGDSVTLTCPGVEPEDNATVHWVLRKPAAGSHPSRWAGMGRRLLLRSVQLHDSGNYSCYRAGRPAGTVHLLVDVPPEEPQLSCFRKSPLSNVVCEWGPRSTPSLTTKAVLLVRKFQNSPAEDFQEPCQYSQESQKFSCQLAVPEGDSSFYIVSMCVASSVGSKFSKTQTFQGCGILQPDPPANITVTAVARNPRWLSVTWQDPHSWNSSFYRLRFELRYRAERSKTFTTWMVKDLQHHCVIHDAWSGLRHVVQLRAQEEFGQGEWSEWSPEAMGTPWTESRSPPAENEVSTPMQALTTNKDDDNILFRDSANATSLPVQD
# protocol-text: SPR (Biacore), periplasmic extract
Give measured koff for each item. Keep answers brief.
One number for each entry, in s⁻¹.

Please report koff for every entry that follows.
1. IL6R65PMP7D6 (VHH, Also expressed in E. coli and purified via IMAC) VHH: EVQLVESGGGLVQPGGSLRLSCAASGSIFRVNVMAWYRQAPGKGRELVAAVINGGTTTYADSVKGRFTISRDNAKNTLYLQMNSLRPEDTAVYYCAFVTTNSDYDLGRDYWGQGTLVTVSS
2. IL6R65PMP19H2 (VHH, CDR3 library clone) VHH: EVQLVESGGGLVQPGGSLRLSCAASGSIFKVNAMGWYRQAPGKGRELVAGIISGGSTNYADSVKGRFTISRDNAKNTLYLQMNSLRPEDTAVYYCAFITADTDYDLGKRYWGQGTLVTVSS
3. IL6R65PMP19A4 (VHH, CDR3 library clone) VHH: EVQLVESGGGLVQPGGSLRLSCAASGSIFKVNAMGWYRQAPGKGRELVAGIISGGSTNYADSVKGRFTISRDNAKNTLYLQMNSLRPEDTAVYYCAFITTDTNYDLGKRSWGQGTLVTVSS
4. IL6R65PMP11F10 (VHH) VHH: EVQLVESGGGLVQPGGSLRLSCAASGTTFKLNIMAWYRQAPGKGRELVAAVINGGTTTYADSVKGRFTISRDNAKNTLYLQMNSLRPEDTAVYYCAFVTTNSDYDLGRDYWGQGTLVTVSS

[0.00044, 0.00074, 0.00089, 0.0013]

The measured values listed here are drawn from patent US20100292083A1.
